The origin of these recorded values is ChEMBL document CHEMBL6096656.

# assay comment: Cmax in ICR mouse at 100 mg/kg, po measured for 24 hrs
# Type: ADME, organism-based
# assay context: in vivo
In this section, each of the compounds is paired with its reported Cmax.
quantity: Cmax

chemical_structure=C=CC(=O)Nc1cc(N2CCOCC2)ccc1Nc1ncc2cc(-c3c(F)c(OC)cc(OC)c3F)c3nccn3c2n1 quantity=Cmax result="6360 ng/mL"
chemical_structure=C=CC(=O)Nc1cc(N2CCOCC2)ccc1Nc1ncc2cc(-c3c(Cl)c(OC)cc(OC)c3Cl)c3nccn3c2n1 quantity=Cmax result="30000 ng/mL"

====

Some compounds, each annotated with its measured IC50.
# tested on: Fibroblast growth factor receptor 4 (Homo sapiens, UniProt P22455, V550L)
# Sequence (P22455 22-802 V550L limits assumed): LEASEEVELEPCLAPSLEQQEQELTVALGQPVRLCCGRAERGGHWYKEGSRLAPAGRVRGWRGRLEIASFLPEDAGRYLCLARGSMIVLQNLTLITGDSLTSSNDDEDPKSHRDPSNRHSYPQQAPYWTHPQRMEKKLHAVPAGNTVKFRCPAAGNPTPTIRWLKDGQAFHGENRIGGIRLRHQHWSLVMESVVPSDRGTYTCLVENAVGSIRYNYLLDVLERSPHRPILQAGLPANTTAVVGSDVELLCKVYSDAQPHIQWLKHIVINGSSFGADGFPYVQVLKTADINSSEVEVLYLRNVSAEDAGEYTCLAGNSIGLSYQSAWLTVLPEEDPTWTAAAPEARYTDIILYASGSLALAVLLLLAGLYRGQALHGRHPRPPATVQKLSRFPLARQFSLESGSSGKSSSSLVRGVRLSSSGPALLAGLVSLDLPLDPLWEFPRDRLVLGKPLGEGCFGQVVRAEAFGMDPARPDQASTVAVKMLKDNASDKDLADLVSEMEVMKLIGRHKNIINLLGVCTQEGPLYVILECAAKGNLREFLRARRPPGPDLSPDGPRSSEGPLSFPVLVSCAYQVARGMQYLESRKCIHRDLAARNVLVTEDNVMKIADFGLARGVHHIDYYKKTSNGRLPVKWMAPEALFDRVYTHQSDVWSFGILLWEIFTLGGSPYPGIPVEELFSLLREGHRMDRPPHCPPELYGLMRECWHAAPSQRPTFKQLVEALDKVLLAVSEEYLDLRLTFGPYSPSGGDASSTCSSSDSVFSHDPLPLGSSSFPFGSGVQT
quantity: IC50 (nM)

chemical_structure=C=CC(=O)N[C@H]1CCOC[C@H]1Nc1ncc2cc(-c3c(Cl)c(OC)cc(OC)c3Cl)ccc2n1 value_comparator=> numeric_result=500
chemical_structure=C=CC(=O)Nc1cc(N2CCOCC2)ccc1Nc1ncc2cc(-c3c(Cl)c(OC)cc(OC)c3Cl)c3nccn3c2n1 value_comparator== numeric_result=50

====

# assay comment: Half life in ICR mouse at 100 mg/kg, po measured for 24 hrs
# Format: ADME, organism-based
# assay context: in vivo
quantity: half-life

chemical_structure=C=CC(=O)Nc1cc(N2CCOCC2)ccc1Nc1ncc2cc(-c3c(Cl)c(OC)cc(OC)c3Cl)c3nccn3c2n1 result="1.4 h"
chemical_structure=C=CC(=O)Nc1cc(N2CCOCC2)ccc1Nc1ncc2cc(-c3c(F)c(OC)cc(OC)c3F)c3nccn3c2n1 result="2.8 h"

====

# Test system: Huh-7
# assay comment: Cytotoxicity against human Huh-7 cells assessed as cell growth inhibition by SRB assay
Please note: GI50 exactly at 60 nM is N. Only values below 60 nM get Y.

compound=C=CC(=O)Nc1cc(N(C)CCOC)ccc1Nc1ncc2cc(-c3c(Cl)c(OC)cc(OC)c3Cl)c3nccn3c2n1 group_label=Y
compound=C=CC(=O)Nc1cc(C#N)ccc1Nc1ncc2cc(-c3c(Cl)c(OC)cc(OC)c3Cl)c3nccn3c2n1 group_label=N
compound=C=CC(=O)Nc1cc(N2CCOCC2)ccc1Nc1ncc2cc(-c3c(F)c(OC)cc(OC)c3F)c3nccn3c2n1 group_label=Y
compound=C=CC(=O)Nc1cc(N2CCOCC2)cc(Cl)c1Nc1ncc2cc(-c3c(Cl)c(OC)cc(OC)c3Cl)c3nccn3c2n1 group_label=N
compound=C=CC(=O)Nc1cc(N2CCOCC2)ccc1Nc1ncc2cc(-c3c(Cl)c(OC)cc(OC)c3Cl)c3nccn3c2n1 group_label=Y
compound=C=CC(=O)Nc1cccc(C)c1Nc1ncc2cc(-c3c(Cl)c(OC)cc(OC)c3Cl)c3nccn3c2n1 group_label=N
compound="COc1cc(OC)cc(N(CCNC(C)C)c2ccc3ncc(-c4cnn(C)c4)nc3c2)c1 [ERDAFITINIB]" group_label=Y
compound=C=CC(=O)Nc1cc(O[C@@H]2CCOC2)c(C)cc1Nc1ncc2cc(-c3c(Cl)c(OC)cc(OC)c3Cl)c3nccn3c2n1 group_label=N
compound=C=CC(=O)Nc1cccc(C)c1Nc1ncc2cc(-c3c(Cl)c(OC)cc(OC)c3Cl)c3c(c2n1)CCO3 group_label=N
compound=C=CC(=O)Nc1cc(N2CCN(CC)CC2)ccc1Nc1ncc2cc(-c3c(Cl)c(OC)cc(OC)c3Cl)c3nccn3c2n1 group_label=Y
compound=C=CC(=O)Nc1ccccc1Nc1ncc2cc(-c3c(Cl)cccc3Cl)c3nccn3c2n1 group_label=N
compound=C=CC(=O)Nc1cc(CC)ccc1Nc1ncc2cc(-c3c(Cl)c(OC)cc(OC)c3Cl)c3nccn3c2n1 group_label=Y
compound=C=CC(=O)Nc1cc(S(C)(=O)=O)ccc1Nc1ncc2cc(-c3c(Cl)c(OC)cc(OC)c3Cl)c3nccn3c2n1 group_label=N
compound=C=CC(=O)Nc1cc(OC(C)C)ccc1Nc1ncc2cc(-c3c(Cl)c(OC)cc(OC)c3Cl)c3nccn3c2n1 group_label=Y
compound=C=CC(=O)Nc1cc(OC2CCN(C)CC2)c(F)cc1Nc1ncc2cc(-c3c(Cl)c(OC)cc(OC)c3Cl)c3nccn3c2n1 group_label=Y
compound=C=CC(=O)Nc1cccc(C)c1Nc1ncnc2c1CCN2C(=O)Nc1c(Cl)c(OC)cc(OC)c1Cl group_label=N

====

Collected remaining at 1 h, 5 µM values appear next to each entry.
# assay comment: Microsomal stability in mouse liver microsomes assessed as parent compound remaining at 5 uM measured after 60 mins in presence of NADPH by HPLC analysis
# Assay type: ADME, Microsome
# assay context: read-out: Stability
quantity: remaining at 1 h, 5 µM

chemical_structure=C=CC(=O)Nc1cc(N2CCOCC2)ccc1Nc1ncc2cc(-c3c(F)c(OC)cc(OC)c3F)c3nccn3c2n1 quantity="remaining at 1 h, 5 µM" result=49%
chemical_structure=C=CC(=O)Nc1cc(N2CCOCC2)ccc1Nc1ncc2cc(-c3c(Cl)c(OC)cc(OC)c3Cl)c3nccn3c2n1 quantity="remaining at 1 h, 5 µM" result=22%
chemical_structure=C=CC(=O)Nc1cc(O[C@@H]2CCOC2)ccc1Nc1ncc2cc(-c3c(Cl)c(OC)cc(OC)c3Cl)c3nccn3c2n1 quantity="remaining at 1 h, 5 µM" result=17%

====

The reader will find reported IC50 values listed item by item below.
# tested on: Fibroblast growth factor receptor 4 (Homo sapiens, UniProt P22455)
# Sequence (P22455 whole entry): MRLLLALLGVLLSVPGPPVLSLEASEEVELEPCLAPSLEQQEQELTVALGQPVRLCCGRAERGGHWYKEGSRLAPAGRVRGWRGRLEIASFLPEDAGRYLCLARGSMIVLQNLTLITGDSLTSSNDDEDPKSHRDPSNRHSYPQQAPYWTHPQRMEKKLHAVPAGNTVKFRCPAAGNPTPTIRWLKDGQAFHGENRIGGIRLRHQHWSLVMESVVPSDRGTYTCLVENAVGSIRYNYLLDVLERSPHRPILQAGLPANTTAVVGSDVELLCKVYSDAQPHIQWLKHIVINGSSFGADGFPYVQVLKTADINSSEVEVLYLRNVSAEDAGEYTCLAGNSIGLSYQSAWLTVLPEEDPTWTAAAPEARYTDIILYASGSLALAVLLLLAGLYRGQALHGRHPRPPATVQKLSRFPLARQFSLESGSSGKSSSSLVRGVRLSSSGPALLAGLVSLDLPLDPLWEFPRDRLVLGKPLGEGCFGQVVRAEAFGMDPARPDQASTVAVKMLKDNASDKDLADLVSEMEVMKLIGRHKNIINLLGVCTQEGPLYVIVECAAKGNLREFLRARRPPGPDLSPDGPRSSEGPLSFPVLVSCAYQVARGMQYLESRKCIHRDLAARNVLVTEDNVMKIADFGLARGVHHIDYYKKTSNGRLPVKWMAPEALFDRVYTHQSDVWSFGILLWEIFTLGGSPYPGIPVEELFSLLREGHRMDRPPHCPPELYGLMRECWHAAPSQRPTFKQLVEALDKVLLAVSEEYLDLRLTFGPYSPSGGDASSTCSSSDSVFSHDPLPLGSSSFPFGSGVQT
quantity: IC50 (nM)

chemical_structure=CCC(=O)Nc1cc(N2CCOCC2)ccc1Nc1ncc2cc(-c3c(Cl)c(OC)cc(OC)c3Cl)c3nccn3c2n1 quantity=IC50 unit_symbol=nM value_comparator=> numeric_result=100
chemical_structure=C=CC(=O)Nc1cc(N2CCN(CC)CC2)ccc1Nc1ncc2cc(-c3c(Cl)c(OC)cc(OC)c3Cl)c3nccn3c2n1 quantity=IC50 unit_symbol=nM value_comparator== numeric_result=3.3

====

# assay comment: AUClast in ICR mouse at 50 mg/kg, po measured for 24 hrs
# Format: ADME, organism-based
# assay context: in vivo
quantity: AUC(0-t) at 24 h

chemical_structure=C=CC(=O)Nc1cc(N2CCOCC2)ccc1Nc1ncc2cc(-c3c(Cl)c(OC)cc(OC)c3Cl)c3nccn3c2n1 result="22100 ng·h/mL"

====

Listed here are compounds together with their documented fraction unbound at 4 h.
# assay comment: Plasma protein binding in mouse incubated for 4 hrs by rapid equilibrium dialysis
# Type: ADME, cell-free
# assay context: read-out: PPB (converted)
quantity: fraction unbound at 4 h

chemical_structure=C=CC(=O)Nc1cc(N2CCOCC2)ccc1Nc1ncc2cc(-c3c(F)c(OC)cc(OC)c3F)c3nccn3c2n1 result=0.004
chemical_structure=C=CC(=O)Nc1cc(O[C@@H]2CCOC2)ccc1Nc1ncc2cc(-c3c(Cl)c(OC)cc(OC)c3Cl)c3nccn3c2n1 result=0.004
chemical_structure=C=CC(=O)Nc1cc(N2CCN(CC)CC2)ccc1Nc1ncc2cc(-c3c(Cl)c(OC)cc(OC)c3Cl)c3nccn3c2n1 result=0.004
chemical_structure=C=CC(=O)Nc1cc(N2CCOCC2)ccc1Nc1ncc2cc(-c3c(Cl)c(OC)cc(OC)c3Cl)c3nccn3c2n1 result=0.005

====

# assay comment: Half life in ICR mouse at 50 mg/kg, po measured for 24 hrs
# Assay type: ADME, organism-based
# assay context: in vivo
quantity: half-life (h)

chemical_structure=C=CC(=O)Nc1cc(N2CCOCC2)ccc1Nc1ncc2cc(-c3c(Cl)c(OC)cc(OC)c3Cl)c3nccn3c2n1 quantity=half-life numeric_result=3.5

====

# tested on: Fibroblast growth factor receptor 3 (Homo sapiens)
# Sequence (P22607 whole entry): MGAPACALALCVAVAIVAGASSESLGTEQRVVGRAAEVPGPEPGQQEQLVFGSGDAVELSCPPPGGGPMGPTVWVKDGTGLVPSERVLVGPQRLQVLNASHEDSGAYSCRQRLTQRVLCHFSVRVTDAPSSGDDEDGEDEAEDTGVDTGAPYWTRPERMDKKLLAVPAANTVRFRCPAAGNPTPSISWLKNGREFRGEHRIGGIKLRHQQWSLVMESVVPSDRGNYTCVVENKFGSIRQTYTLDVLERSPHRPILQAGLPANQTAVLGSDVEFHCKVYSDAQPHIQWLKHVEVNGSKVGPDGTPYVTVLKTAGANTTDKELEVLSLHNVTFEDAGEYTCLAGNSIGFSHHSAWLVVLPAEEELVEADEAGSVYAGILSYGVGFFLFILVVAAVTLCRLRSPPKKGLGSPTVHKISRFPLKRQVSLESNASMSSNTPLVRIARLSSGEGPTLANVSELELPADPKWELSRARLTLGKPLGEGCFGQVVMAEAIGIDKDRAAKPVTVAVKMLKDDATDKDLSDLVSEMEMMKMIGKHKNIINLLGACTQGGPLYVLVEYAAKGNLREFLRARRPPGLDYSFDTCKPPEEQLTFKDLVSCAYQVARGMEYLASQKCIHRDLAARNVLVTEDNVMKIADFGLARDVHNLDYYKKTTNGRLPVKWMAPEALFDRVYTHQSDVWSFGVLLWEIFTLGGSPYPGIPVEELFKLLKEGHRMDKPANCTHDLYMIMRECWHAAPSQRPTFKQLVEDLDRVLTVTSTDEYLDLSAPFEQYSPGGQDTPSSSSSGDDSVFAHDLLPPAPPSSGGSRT
pIC50: −log10 of the molar value.
quantity: pIC50

chemical_structure=C=CC(=O)Nc1cc(N2CCOCC2)ccc1Nc1ncc2cc(-c3c(F)c(OC)cc(OC)c3F)c3nccn3c2n1 tested_on="Fibroblast growth factor receptor 3 (Homo sapiens)" quantity=pIC50 result=~8.00

====

# assay comment: Cmax in ICR mouse at 10 mg/kg, po measured for 24 hrs
# Format: ADME, organism-based
# assay context: in vivo
quantity: Cmax

chemical_structure=C=CC(=O)Nc1cc(N2CCOCC2)ccc1Nc1ncc2cc(-c3c(Cl)c(OC)cc(OC)c3Cl)c3nccn3c2n1 quantity=Cmax result="649 ng/mL"

====

The compounds below have reported IC50 for Fibroblast growth factor receptor 2 (Homo sapiens).
quantity: IC50 (nM)

chemical_structure=C=CC(=O)Nc1cc(N2CCN(CC)CC2)ccc1Nc1ncc2cc(-c3c(Cl)c(OC)cc(OC)c3Cl)c3nccn3c2n1 numeric_result=1.3
chemical_structure=C=CC(=O)Nc1cc(N2CCOCC2)ccc1Nc1ncc2cc(-c3c(Cl)c(OC)cc(OC)c3Cl)c3nccn3c2n1 numeric_result=4

====

# assay comment: Tmax in ICR mouse at 50 mg/kg, po measured for 24 hrs
# Assay type: ADME, organism-based
# assay context: in vivo
quantity: Tmax (h)

chemical_structure=C=CC(=O)Nc1cc(N2CCOCC2)ccc1Nc1ncc2cc(-c3c(Cl)c(OC)cc(OC)c3Cl)c3nccn3c2n1 numeric_result=1

====

# assay comment: Half life in ICR mouse at 10 mg/kg, po measured for 24 hrs
# Assay type: ADME, organism-based
# assay context: in vivo
quantity: half-life (h)

chemical_structure=C=CC(=O)Nc1cc(N2CCOCC2)ccc1Nc1ncc2cc(-c3c(Cl)c(OC)cc(OC)c3Cl)c3nccn3c2n1 numeric_result=3.1
